# Test system: human SMAD7 mRNA
# assayProcedure: Antisense inhibition of human SMAD7 mRNA expression in Hep3B cells by 3-10-3 cEt gapmers, 10,000 nM, electroporation (Example 2)
# Format: cell-based
# conditionContext: Hep3B cells, electroporation with 10,000 nM antisense oligonucleotide, approximately 24 hours, primer probe set RTS5062, relative to untreated control cells
Strand notation (5' to 3'): a small letter for the sugar, then the base; units joined by * are phosphorothioate-linked, units joined directly phosphodiester-linked; [ ] holds rarer units or linkages, { } end groups; capitals alone tell only the bases. k = constrained ethyl (cEt); [5mC] = 5-methylcytosine; d = 2'-deoxy (DNA)
propertyLabel: % Inhibition (%)
// return numeric value only (unit: %, not printed)

Prompt: Any idea what % Inhibition was measured for 790620 (kT*kA*kA*dT*dA*dA*dA*dT*d[5mC]*dT*d[5mC]*dA*dG*kG*kT*kT; antisense) [compound 790620] ?
Completion: 30

Prompt: Any idea what % Inhibition was measured for 799121 (antisense k[5mC]*k[5mC]*kT*dA*dA*dT*dA*dG*d[5mC]*dA*dG*dA*dG*k[5mC]*kT*kT) [compound 799121] ?
Completion: 25

Prompt: Any idea what % Inhibition was measured for 799117 (antisense kG*k[5mC]*kT*dT*dA*dA*d[5mC]*dA*d[5mC]*dA*d[5mC]*dA*dG*kG*kA*kT) [compound 799117] ?
Completion: 46

Prompt: Any idea what % Inhibition was measured for 799175 (antisense kT*kA*kA*dA*dG*dT*d[5mC]*dT*dA*dA*dA*d[5mC]*dA*kT*kG*k[5mC]) [compound 799175] ?
Completion: 0

Prompt: Any idea what % Inhibition was measured for 799228 (k[5mC]*kA*kT*dA*dG*dA*dA*dA*dA*dA*dA*dA*d[5mC]*kA*k[5mC]*k[5mC]; antisense) [compound 799228] ?
Completion: 4

Prompt: Any idea what % Inhibition was measured for 799059 (antisense kA*k[5mC]*kT*dA*dG*d[5mC]*dA*dG*dG*d[5mC]*dT*d[5mC]*dG*k[5mC]*kT*kG) [compound 799059] ?
Completion: 18

Prompt: Any idea what % Inhibition was measured for 799225 (kA*k[5mC]*kA*d[5mC]*d[5mC]*dA*dA*dT*d[5mC]*dT*dT*dG*dT*kG*kT*kT; antisense) [compound 799225] ?
Completion: 4

Prompt: Any idea what % Inhibition was measured for 772692 (kA*kA*kA*dG*d[5mC]*dA*d[5mC]*dT*dA*d[5mC]*dA*dA*dT*kG*k[5mC]*kT; antisense) [compound 772692] ?
Completion: 19

Prompt: Any idea what % Inhibition was measured for 799099 (antisense kA*kA*kA*dA*dA*d[5mC]*d[5mC]*dT*dG*dA*dT*dG*dT*k[5mC]*kA*k[5mC]) [compound 799099] ?
Completion: 44

Prompt: Any idea what % Inhibition was measured for 799210 (kT*kA*kA*dA*dT*dA*dA*dT*dG*dA*dT*dG*d[5mC]*kT*kT*kA; antisense) [compound 799210] ?
Completion: 10

Prompt: Any idea what % Inhibition was measured for 790543 (kT*kG*kA*dA*dA*dA*dG*d[5mC]*dA*dA*dG*d[5mC]*dA*k[5mC]*kT*k[5mC]; antisense) [compound 790543] ?
Completion: 23

Prompt: Any idea what % Inhibition was measured for 799054 (antisense k[5mC]*kA*kG*dA*dA*dG*d[5mC]*d[5mC]*dT*dG*dT*dG*dG*kA*k[5mC]*kA) [compound 799054] ?
Completion: 15

Prompt: Any idea what % Inhibition was measured for 799176 (antisense kT*kG*kT*dT*dA*dA*dA*dG*dT*d[5mC]*dT*dA*dA*kA*k[5mC]*kA) [compound 799176] ?
Completion: 0

Prompt: Any idea what % Inhibition was measured for 799020 (kG*kA*k[5mC]*dT*dG*d[5mC]*dA*dA*dA*d[5mC]*d[5mC]*dT*d[5mC]*kT*k[5mC]*kT; antisense) [compound 799020] ?
Completion: 48

Prompt: Any idea what % Inhibition was measured for 799021 (kG*kG*kA*d[5mC]*dT*dG*d[5mC]*dA*dA*dA*d[5mC]*d[5mC]*dT*k[5mC]*kT*k[5mC]; antisense) [compound 799021] ?
Completion: 62

Prompt: Any idea what % Inhibition was measured for 799153 (antisense kG*kT*kT*dA*dG*dG*dT*dG*dT*d[5mC]*dA*dG*d[5mC]*k[5mC]*kT*kA) [compound 799153] ?
Completion: 68

Prompt: Any idea what % Inhibition was measured for 799122 (antisense k[5mC]*kT*kG*dG*d[5mC]*d[5mC]*dT*dA*dA*dT*dA*dG*d[5mC]*kA*kG*kA) [compound 799122] ?
Completion: 29

Prompt: Any idea what % Inhibition was measured for 799120 (antisense kA*kA*kT*dA*dG*d[5mC]*dA*dG*dA*dG*d[5mC]*dT*dT*kA*kA*k[5mC]) [compound 799120] ?
Completion: 45

Prompt: Any idea what % Inhibition was measured for 799002 (antisense kA*k[5mC]*kA*dG*d[5mC]*d[5mC]*dG*d[5mC]*dA*d[5mC]*dA*d[5mC]*dT*k[5mC]*kA*k[5mC]) [compound 799002] ?
Completion: 15

Prompt: Any idea what % Inhibition was measured for 799211 (kA*k[5mC]*kA*dT*dA*dA*dA*dT*dA*dA*dT*dG*dA*kT*kG*k[5mC]; antisense) [compound 799211] ?
Completion: 0

Prompt: Any idea what % Inhibition was measured for 799097 (antisense kA*kA*kA*d[5mC]*d[5mC]*dT*dG*dA*dT*dG*dT*d[5mC]*dA*k[5mC]*k[5mC]*kA) [compound 799097] ?
Completion: 39

Prompt: Any idea what % Inhibition was measured for 799191 (antisense kA*kT*kG*dA*dG*dA*dA*dT*dG*d[5mC]*dT*dT*d[5mC]*kT*k[5mC]*kT) [compound 799191] ?
Completion: 26

Prompt: Any idea what % Inhibition was measured for 799159 (antisense kG*kT*kG*dT*dA*dT*dG*dA*dG*dT*dT*dG*dT*kA*kG*kA) [compound 799159] ?
Completion: 56

Prompt: Any idea what % Inhibition was measured for 790545 (kA*kA*kA*dG*dA*dG*dT*dT*dT*dG*d[5mC]*dA*dT*kG*kA*kA; antisense) [compound 790545] ?
Completion: 24

Prompt: Any idea what % Inhibition was measured for 798958 (antisense kA*kA*k[5mC]*dA*dA*dT*dT*d[5mC]*dT*dT*dT*dT*d[5mC]*kA*kT*kA) [compound 798958] ?
Completion: 0

Measured values drawn from patent US10517889B2 for this set.
